Molecular target: T1, human BTLA (human, UniProt Q7Z6A9 31-289)
T1 construct: also called hBTLA; HEK293.hBTLA
T1 sequence: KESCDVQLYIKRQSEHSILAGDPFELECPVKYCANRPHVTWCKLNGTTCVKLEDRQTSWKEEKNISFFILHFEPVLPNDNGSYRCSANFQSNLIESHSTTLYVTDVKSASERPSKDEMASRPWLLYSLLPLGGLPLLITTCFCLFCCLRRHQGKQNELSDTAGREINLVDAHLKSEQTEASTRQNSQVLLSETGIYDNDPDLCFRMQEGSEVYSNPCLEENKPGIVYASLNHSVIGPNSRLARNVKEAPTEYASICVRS
Assay: flow cytometry, HEK293 cells overexpressing human BTLA

# Binder, binding result
measured = [
    ("HFB6-5hz16-hG1 (antibody, human IgG1, V domains shown, Humanized variant of HFB6-5, human IgG1 (hG1)) VH: EVQLVESGGGLVQPGGSLKLSCAASGVNIKDTYMYWVRQASGKGLEWIGRIDPANGYTRYAASFKGRATISADDSKNTAYLQLNSLKTEDTAVYYCAVYDGYYESFDVWGQGTLVTVSS VL: EIVLTQSPGTLSVSPGERATISCRSSQSLLDSDGKTYLNWLQQKPGQAPRRLIYLVSKRDTGVPDRFSGSGSGTDFTLTISRVEPEDFAVYYCWQGTLFPRTFGQGTKLEIK", "binds"),
    ("HFB6-5hz6-hG1 (antibody, human IgG1, V domains shown, Humanized variant of HFB6-5, human IgG1 (hG1)) VH: EVQLVQSGAEVKKPGESLKISCKGSGVNIKDTYMYWVRQMPGKGLEWIGRIDPANGYTRYSPSFQGQVTISADKSISTAYLQLSSLKASDTAMYYCAVYDGYYESFDVWGQGTLVTVSS VL: DIQMTQSPSSLSASVGDRVTITCRSSQSLLDSDGKSYLNWLQQKPGKAPKRLIYLVSKLDSGVPSRFSGSGSGTDFTLTISSLQPEDFATYYCWQGTLFPRTFGQGTKLEIK", "binds"),
    ("HFB6-5hz4-hG1 (antibody, human IgG1, V domains shown, Humanized variant of HFB6-5, human IgG1 (hG1)) VH: EVQLVESGGGLVQPGGSLKLSCAASGVNIKDTYMYWVRQASGKGLEWIGRIDPANGYTRYAASFKGRATISADDSKNTAYLQLNSLKTEDTAVYYCAVYDGYYESFDVWGQGTLVTVSS VL: DIQMTQSPSSLSASVGDRVTITCRSSQSLLDSDGKSYLNWLQQKPGKAPKRLIYLVSKLDSGVPSRFSGSGSGTDFTLTISSLQPEDFATYYCWQGTLFPRTFGQGTKLEIK", "binds"),
]
